B1: NR2F2 (parent)
chain: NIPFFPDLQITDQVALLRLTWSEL

Variants of: B1
Assay: protein stability index of a GFP-peptide fusion (GPS, HEK-293T) (PSI 1-6); higher = more stable;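 further: lentivirally expressed fusions sorted by FACS into six bins by GFP to DsRed ratio, PSI derived from sequencing read proportions per bin multiplied by bin number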
Conditions: c terminus: a fixed tail appended
measured.quantity: protein stability index

> print(dat)
     var        measured.quantity  value.reported
 1  D12T  protein stability index            2.86
 2  T11Q  protein stability index            2.47
 3   I2S  protein stability index            2.38
 4   F5Q  protein stability index            2.13
 5  R18G  protein stability index            2.25
 6  L24R  protein stability index            1.96
 7   Q9G  protein stability index            4.13
 8   F4V  protein stability index            2.42
 9   P3D  protein stability index            2.43
10  E23Q  protein stability index            2.12
11  E23S  protein stability index            2.97
12  A15F  protein stability index            3.86
13  L16I  protein stability index            2.59
14  L16D  protein stability index            2.02
15   L8S  protein stability index            1.82
